Data provenance is ChEMBL document CHEMBL3997785.

# assay.info: Intrinsic clearance in human liver microsomes at 1 uM in presence of NADPH by LC-MS method
# Format: ADME, microsome
# study.conditions: read-out: CLH
property.measured: microsomal CLint at 1 µM (µL/min/mg)
One number for each entry, in µL/min/mg.

Use these answered entries as a reference point.
INSERT INTO results (compound, observed_result) VALUES
  ('COc1ccc(Nc2nc(NCc3ccccc3)c3ccccc3n2)cc1', 27),
  ('CN1CCC(Nc2nc(Nc3ccc(Cl)c(F)c3)nc3ccccc23)CC1.Cl.Cl', 10),
  ('CN1CCN(CCNc2nc(Nc3ccc(Cl)c(F)c3)nc3ccccc23)CC1.Cl.Cl', 23);

Now look at this one.
IN: I would be grateful if you could share the reported microsomal CLint at 1 µM for COc1cc2nc(Nc3ccc(F)cc3)nc(NCC3CCCO3)c2cc1OC (configuration not stated) .
OUT: 27

* * *

Please provide measured microsomal CLint at 1 µM for the entries that follow.
# assay.info: Intrinsic clearance in mouse liver microsomes at 1 uM in presence of NADPH by LC-MS method
# Format: ADME, microsome
# study.conditions: read-out: CLH
One number for each entry, in µL/min/mg.

INSERT INTO results (molecule, units_symbol, observed_result) VALUES
  ('CN1CCC(Nc2nc(Nc3ccc(F)c(Cl)c3)nc3ccccc23)CC1.Cl.Cl', 'µL/min/mg', 12),
  ('COc1cc2nc(Nc3ccc(F)cc3)nc(NCC3CCCO3)c2cc1OC (configuration not stated)', 'µL/min/mg', 72),
  ('CN1CCN(CCNc2nc(Nc3ccc(Cl)c(F)c3)nc3ccccc23)CC1.Cl.Cl', 'µL/min/mg', 37);

For every listed record, write down its microsomal CLint at 1 µM.
1. COc1cc2nc(Nc3ccc(F)cc3)nc(NCc3ccccc3)c2cc1OC
2. CN1CCC(Nc2nc(Nc3ccc(Cl)c(F)c3)nc3ccccc23)CC1.Cl.Cl
3. COc1ccc(Nc2nc(NCc3ccccc3)c3ccccc3n2)cc1
4. CN1CCN(CCNc2nc(Nc3ccc(F)c(Cl)c3)nc3ccccc23)CC1.Cl.Cl

OUT:
1. 35
2. 9
3. 123
4. 57

* * *

# assay.info: Selectivity index, ratio of EC50 for human HepG2 cells to EC50 for Plasmodium falciparum 3D7 asexual blood stage infected in human erythrocytes
# Format: toxicity, cell-based
# study.conditions: read-out: Ratio EC50
// assign Condition met if selectivity ratio falls strictly below 70, else Condition not met (ties count as Condition not met)

Take a look at these entries with their results.
INSERT INTO measurements (compound, assigned_label) VALUES
  ('COc1ccc(Nc2nc(NCc3ccco3)c3ccccc3n2)cc1', 'Condition met'),
  ('NC(=O)c1ccc(Nc2nc(NCc3ccco3)c3ccccc3n2)cc1', 'Condition met'),
  ('CN1CCN(CCNc2nc(Nc3ccc(F)c(Cl)c3)nc3ccccc23)CC1.Cl.Cl', 'Condition not met'),
  ('COC(=O)c1ccc(Nc2nc(NCc3ccco3)c3ccccc3n2)cc1', 'Condition met'),
  ('COc1cc2nc(Nc3ccc(F)cc3)nc(NCC3CCCO3)c2cc1OC (centres undefined)', 'Condition not met');

Next up:
IN: Determine whether this compound shows selectivity ratio lower than 70 (ties excluded): Fc1ccc(Nc2nc(NCc3ccccc3)c3ncccc3n2)cc1
OUT: Condition not met
